The origin of these recorded values is ChEMBL document CHEMBL4680086.

# assay_overview: Stability in pH 1.3 buffer by HPLC analysis
# Type: physicochemical
observable: half-life (h)
Give a bare numeral; the unit h is implied.

Lab note: CCCC(CCC)C(=O)OC(CCCN1CCC(O)(c2ccc(Cl)cc2)CC1)c1ccc(F)cc1 (racemic) gave half-life of 129

###

# assay_overview: Cytotoxicity in HREC assessed as reduction in cell viability incubated for 48 hrs by MTT assay
# Type: functional
# study_conditions: Homo sapiens, read-out: IC50
Exercise: state measured pIC50 for each of the compounds provided.
By convention, pIC50 is the negative base-10 log of a molar concentration.

Lab note: CCCC(CCC)C(=O)OC(CCCN1CCC(O)(c2ccc(Cl)cc2)CC1)c1ccc(F)cc1 (racemic) gave pIC50 of 4.95

Lab note: CCCC(CCC)C(=O)O gave pIC50 of 2.84

Lab note: OC(CCCN1CCC(O)(c2ccc(Cl)cc2)CC1)c1ccc(F)cc1 (racemic) [HYDROXYHALOPERIDOL] gave pIC50 of 3.89
